Where these numbers come from: ChEMBL document CHEMBL1938343

- method.notes: Clearance in rat at 2 mg/kg, iv
- Type: ADME, organism-based
- Design: dose 2 mg/kg, route intravenous
- applied.conditions: in vivo
observation.type: clearance (mL/min/kg)

[[record]]
smiles_notation = "CNC(=O)c1ccc(Oc2ccc(C#C[C@]3(O)CN4CCC3CC4)cc2)cc1"
unit_symbol = "mL/min/kg"
numeric_result = 16

[[record]]
smiles_notation = "CN1CCC(NC(=O)c2ccc(Oc3ccc(C#C[C@]4(O)CN5CCC4CC5)cc3)cc2)CC1"
unit_symbol = "mL/min/kg"
numeric_result = 16


====

logD for assorted compounds
- method.notes: Lipophilicity, log D of the compound
- applied.conditions: octanol/water
observation.type: logD

[[record]]
compound = "O=C(NCc1ccncn1)c1ccc(Oc2ccc(C#C[C@]3(O)CN4CCC3CC4)cc2)cc1"
result = 1.8

[[record]]
compound = "CNC(=O)c1ccc(Oc2ccc(C#C[C@]3(O)CN4CCC3CC4)cc2)cc1"
result = 2

[[record]]
compound = "O=C(NC1CCCS(=O)(=O)C1)c1ccc(Oc2ccc(C#C[C@]3(O)CN4CCC3CC4)cc2)cc1 (single isomer, unassigned; diastereomer 1)"
result = 1.4


====

- experimental.target: Collagenase 3 (Homo sapiens)
- method.notes: Inhibition of recombinant human MMP13 using Mca-Pro-cyclohexyl-Ala-Gly-Nva-His-Ala- Dap(Dnp)-NH2 as substrate by fluorometric analysis
- applied.conditions: read-out: pIC50 (converted)
Lab note: anything with IC50 below 80 nM is marked TRUE; values at 80 nM or higher are marked FALSE.

[[record]]
compound = "O=C(NCC1CCCCC1)c1ccc(Oc2ccc(C#C[C@]3(O)CN4CCC3CC4)cc2)cc1"
qualitative_label = "FALSE"

[[record]]
compound = "CNC(=O)N1CCC(NC(=O)c2ccc(Oc3ccc(C#C[C@]4(O)CN5CCC4CC5)cc3)cc2)CC1"
qualitative_label = "TRUE"

[[record]]
compound = "CC(C)NC(=O)c1ccc(Oc2ccc(C#C[C@]3(O)CN4CCC3CC4)cc2)cc1"
qualitative_label = "FALSE"

[[record]]
compound = "CC(=O)Nc1ccc(Oc2ccc(C#C[C@]3(O)CN4CCC3CC4)cc2)cc1"
qualitative_label = "FALSE"

[[record]]
compound = "CC[C@@H](C)NC(=O)c1ccc(Oc2ccc(C#C[C@]3(O)CN4CCC3CC4)cc2)cc1"
qualitative_label = "TRUE"

[[record]]
compound = "COc1ccc(CNC(=O)c2ccc(Oc3ccc(C#C[C@]4(O)CN5CCC4CC5)cc3)cc2)cc1OC"
qualitative_label = "TRUE"

[[record]]
compound = "O=C(NC1CCS(=O)(=O)CC1)c1ccc(Oc2ccc(C#C[C@]3(O)CN4CCC3CC4)cc2)cc1"
qualitative_label = "FALSE"

[[record]]
compound = "CS(=O)(=O)Nc1ccc(Oc2ccc(C#C[C@]3(O)CN4CCC3CC4)cc2)cc1"
qualitative_label = "FALSE"

[[record]]
compound = "CCOC(=O)c1ccc(Oc2ccc(C#C[C@]3(O)CN4CCC3CC4)cc2)cc1"
qualitative_label = "FALSE"

[[record]]
compound = "O=C(O)c1ccc(Oc2ccc(C#C[C@]3(O)CN4CCC3CC4)cc2)cc1"
qualitative_label = "FALSE"

[[record]]
compound = "CS(=O)(=O)N1CCC(NC(=O)c2ccc(Oc3ccc(C#C[C@]4(O)CN5CCC4CC5)cc3)cc2)CC1"
qualitative_label = "TRUE"

[[record]]
compound = "N#Cc1cccc(CNC(=O)c2ccc(Oc3ccc(C#C[C@]4(O)CN5CCC4CC5)cc3)cc2)c1"
qualitative_label = "TRUE"

[[record]]
compound = "O=C(NCc1ccccc1)c1ccc(Oc2ccc(C#C[C@]3(O)CN4CCC3CC4)cc2)cc1"
qualitative_label = "TRUE"

[[record]]
compound = "CN(Cc1ccncc1)C(=O)c1ccc(Oc2ccc(C#C[C@]3(O)CN4CCC3CC4)cc2)cc1"
qualitative_label = "FALSE"

[[record]]
compound = "O=C(NCc1ccc(F)cc1)c1ccc(Oc2ccc(C#C[C@]3(O)CN4CCC3CC4)cc2)cc1"
qualitative_label = "FALSE"

[[record]]
compound = "O=C(NCc1ccnc2ccccc12)c1ccc(Oc2ccc(C#C[C@]3(O)CN4CCC3CC4)cc2)cc1"
qualitative_label = "TRUE"

[[record]]
compound = "CS(=O)(=O)c1cccc(CNC(=O)c2ccc(Oc3ccc(C#C[C@]4(O)CN5CCC4CC5)cc3)cc2)c1"
qualitative_label = "TRUE"

[[record]]
compound = "O=C(NC1CCN(C(=O)C2CC2)CC1)c1ccc(Oc2ccc(C#C[C@]3(O)CN4CCC3CC4)cc2)cc1"
qualitative_label = "TRUE"

[[record]]
compound = "CNS(=O)(=O)c1ccc(Oc2ccc(C#C[C@]3(O)CN4CCC3CC4)cc2)cc1"
qualitative_label = "FALSE"

[[record]]
compound = "COc1cc(CNC(=O)c2ccc(Oc3ccc(C#C[C@]4(O)CN5CCC4CC5)cc3)cc2)cc(OC)c1"
qualitative_label = "TRUE"

[[record]]
compound = "C[C@@H](NC(=O)c1ccc(Oc2ccc(C#C[C@]3(O)CN4CCC3CC4)cc2)cc1)c1ccncc1"
qualitative_label = "TRUE"

[[record]]
compound = "O=C(Nc1ccccn1)c1ccc(Oc2ccc(C#C[C@]3(O)CN4CCC3CC4)cc2)cc1"
qualitative_label = "FALSE"

[[record]]
compound = "CS(=O)(=O)c1ccc(Oc2ccc(C#C[C@]3(O)CN4CCC3CC4)cc2)cc1"
qualitative_label = "FALSE"

[[record]]
compound = "OCc1ccc(Oc2ccc(C#C[C@]3(O)CN4CCC3CC4)cc2)cc1"
qualitative_label = "FALSE"

[[record]]
compound = "NC(=O)c1ccc(Oc2ccc(C#C[C@]3(O)CN4CCC3CC4)cc2)cc1"
qualitative_label = "FALSE"

[[record]]
compound = "O=C(NC1CCCCC1)c1ccc(Oc2ccc(C#C[C@]3(O)CN4CCC3CC4)cc2)cc1"
qualitative_label = "TRUE"

[[record]]
compound = "O=C(NC1CCCS(=O)(=O)C1)c1ccc(Oc2ccc(C#C[C@]3(O)CN4CCC3CC4)cc2)cc1 (single isomer, unassigned; diastereomer 2)"
qualitative_label = "TRUE"

[[record]]
compound = "CNC(=O)c1ccc(Oc2ccc(C#C[C@]3(O)CN4CCC3CC4)cc2)cc1"
qualitative_label = "FALSE"

[[record]]
compound = "CC(=O)N1CCC(NC(=O)c2ccc(Oc3ccc(C#C[C@]4(O)CN5CCC4CC5)cc3)cc2)CC1"
qualitative_label = "TRUE"

[[record]]
compound = "C[S+]([O-])c1ccc(Oc2ccc(C#C[C@]3(O)CN4CCC3CC4)cc2)cc1 (some centres not stated)"
qualitative_label = "FALSE"

